Cited source for all entries: patent US20230250190A1

system-name: T1, T9 (Tn-MUC1) (PAPGSTAPPAHGVT(α-GalNAc)S(α-GalNAc)APDTRPAPG-OH)
T1 peptide: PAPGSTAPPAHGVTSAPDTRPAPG
experimental-protocol: glycopeptide array
Catalogue of binders with associated EC50
Could you give me the number in µg/mL? Just the number is fine.

Worked cases, answers included:
21 (antibody, V domains shown) VH: QVQLVQSGAEVRKPGASVKFSCKASGYSFTHYYVHWVRQAPGQGLEWMGVINPFDSSTNYARKFQGRVTMTRDTSTTTVYMDLSSLRSEDTAVYFCARDAMEGDSYFDYWGQGTLVTVSS ... 0.058
90 (antibody, V domains shown) VH: QVQLVQSGAEVKKPGASVKVSCKASGYTFINHYIHWVRQAPGQGLEWMGVINPFDGSTNYAQKFQGRVTVTRDTSTSTVFLDLSSLRSEDTAVYYCARDNMIGYVLFDYWGQGTLVTVSS ... 0.102
86 (antibody, V domains shown) VH: QVQLVQSGAEVKKPGASVKVSCKASGYPFINYYIQWVRQAPGQGLEWMGVINPFDGSTNYAQKFQGRVTVTRDTSTSTVFMDLSSLRSEDTAVYYCARDNMIGYVLFDYWGQGTLVTVSS ... 0.05

Problem: Hello, please tell me recorded EC50 for this one: 66 (antibody, V domains shown) VH: QVQLVQSGAEVKKPGASVRVSCKASGYTFTNYYIHWVRQAPGHGLTWMGVINPFDSSTDYAQKFQGRVTMTRDTSTSTVYMDLSSLRSEDTAVYYCARDYMRGHVVFDYWGQGTLVTVSS
Solution: 0.123
